So I've got a bunch of compounds here, and I need their pIC50 values.
# Test system: PC3
# protocolText: Anti-proliferative activity, cell-titre luminescent viability assay
# Assay type: cell-based
# conditionContext: Homo sapiens, PC-3, 72 h, 0.1, 0.3, 1, 3, 10 and 30 μM, nonlinear regression sigmoidal dose-response (EC50), read-out: IC50 Prostate PC3
// pIC50 here means minus log10 of the molar concentration (mol/L)

The compound listed as Cc1c(C)n(CCCN2CCN(C)CC2)c2ccc(Cc3cccc(C(=O)N4CCN(CCc5cccc(F)c5)CC4)c3)cc12 [Compound 3504] shows pIC50 equal to 5.70

The compound listed as Cc1c(C)n(CCCN2CCN(C)CC2)c2ccc(Oc3ccc(C(=O)N4CCN(CCc5ccccc5)CC4)cc3)cc12 [Compound 3530] shows pIC50 equal to 5.32

The compound listed as Cc1c(C)n(CCCN2CCN(C)CC2)c2ccc(Oc3cccc(C(=O)N4CCN(CCc5cccc(F)c5)CC4)c3)cc12 [Compound 3510] shows pIC50 equal to 5.10

The compound listed as COc1ccc(CCN2CCN(C(=O)c3cccc(Cc4ccc5c(c4)c(C)c(C)n5CCCN4CCN(C)CC4)c3)CC2)cc1 [Compound 3502] shows pIC50 equal to 5.27

The compound listed as Cc1c(C)n(CCCN2CCN(C)CC2)c2ccc(Cc3ccc(C(=O)N4CCN(CCc5cccc6ccccc56)CC4)cc3)cc12 [Compound 3544] shows pIC50 equal to 5.09

The compound listed as COc1ccc2cccc(CCN3CCN(C(=O)c4cccc(Cc5ccc6c(c5)c(C)c(C)n6CCCN5CCN(C)CC5)c4)CC3)c2c1 [Compound 3540] shows pIC50 equal to 5.64

The compound listed as Cc1c(C)n(CCCN2CCN(C)CC2)c2ccc(Oc3ccc(C(=O)N4CCN(CCc5cccc(F)c5)CC4)cc3)cc12 [Compound 3528] shows pIC50 equal to 5.14

The compound listed as Cc1c(C)n(CCCN2CCN(C)CC2)c2ccc(Cc3cccc(C(=O)N4CCN(CCc5cccc6ccccc56)CC4)c3)cc12 [Compound 3539] shows pIC50 equal to 5.52

The compound listed as Cc1c(C)n(CCCN2CCN(C)CC2)c2ccc(Oc3ccc(C(=O)N4CCN(CCc5ccc6c(c5)OCO6)CC4)cc3)cc12 [Compound 3527] shows pIC50 equal to 5.14

The compound listed as COc1cccc(CCN2CCN(C(=O)c3cccc(Oc4ccc5c(c4)c(C)c(C)n5CCCN4CCN(C)CC4)c3)CC2)c1 [Compound 3511] shows pIC50 equal to 5.59

The compound listed as Cc1c(C)n(CCCN2CCN(C)CC2)c2ccc(Oc3ccc(C(=O)N4CCN(CCc5ccc(F)cc5)CC4)cc3)cc12 [Compound 3525] shows pIC50 equal to 5.35

The compound listed as Cc1c(C)n(CCCN2CCN(C)CC2)c2ccc(Cc3ccc(C(=O)N4CCN(CCc5ccc6ccccc6c5)CC4)cc3)cc12 [Compound 3542] shows pIC50 equal to 5.44

The compound listed as Cc1c(C)n(CCCN2CCN(C)CC2)c2ccc(Oc3cccc(C(=O)N4CCN(CCc5ccc6c(c5)OCO6)CC4)c3)cc12 [Compound 3509] shows pIC50 equal to 5.16
